The reported measurements were obtained from PubChem BioAssay (EPA / NIEHS).

- Read-out: Monocyte Chemoattractant Protein-1 (MCP1), CCL2 (gene 6347)
- Test Description: BSK_3C_MCP1: BioMAP Diversity Plus: 3C Assay for Monocyte Chemoattractant Protein-1 (MCP1) Biomarker Activity (AID 2283017)
- Applied Conditions: primary human endothelial cells (HUVEC); actives raise or lower the signal
- Description: BSK_3C is a cell-based, multiplexed-readout assay that uses umbilical vein endothelium, a human vascular primary cell, with measurements taken at 24 hours after chemical dosing in a 96-well plate.BSK_3C_MCP1 is an assay component measured in the BSK_3C assay. It measures MCP-1 antibody related to regulation of gene expression using ELISA technology.Data from the assay component BSK_3C_MCP1 was analyzed into 1 assay endpoint. […]
Calls of active or inactive are those of the source. How the source made its calls: active means hit-call score of the fitted dose curve at least 0.9, where 1 is the maximum; inactive means score below 0.9.
Readout Type: AC50

Here's what some known entries look like.
C#CC1(O)CC[C@H]2[C@@H]3CCC4=CCCC[C@@H]4[C@H]3CC[C@@]21C (stereo partly drawn) :: 11 µM (active)
CCCCNc1ccc(NCCCC)c2c1C(=O)c1ccccc1C2=O :: inactive
C/C=C\C/C=C/CCCCCCCCOC(C)=O :: inactive
CCCCCCCCCCCCCCCC[N+](C)(C)CC :: 2.66 µM (active)
CCCCC/C=C\C/C=C\CCCCCCCC(=O)OC :: 34.4 µM (active)
O=C(Cl)c1cc(C(=O)Cl)cc(C(=O)Cl)c1 :: 11.6 µM (active)
O=Nc1ccc(O)cc1 :: inactive
C=C[Si](OC(C)=O)(OC(C)=O)OC(C)=O :: inactive
CN1C(=O)N(C)C(O)C1O (stereo not drawn) :: inactive
CCCCCCCCc1ccc(Nc2ccc(CCCCCCCC)cc2)cc1 :: inactive

Shift focus to the following entry.
Query: Bench note: what AC50 did O=c1c2ccccc2oc2ccccc12 show?
Reply: inactive
